Molecular target: T1, human ferroportin (SLC40A1) fused with GFP, stably expressed in HEK293 cells (human, UniProt Q9NP59 1-571)
T1 sequence (looked up): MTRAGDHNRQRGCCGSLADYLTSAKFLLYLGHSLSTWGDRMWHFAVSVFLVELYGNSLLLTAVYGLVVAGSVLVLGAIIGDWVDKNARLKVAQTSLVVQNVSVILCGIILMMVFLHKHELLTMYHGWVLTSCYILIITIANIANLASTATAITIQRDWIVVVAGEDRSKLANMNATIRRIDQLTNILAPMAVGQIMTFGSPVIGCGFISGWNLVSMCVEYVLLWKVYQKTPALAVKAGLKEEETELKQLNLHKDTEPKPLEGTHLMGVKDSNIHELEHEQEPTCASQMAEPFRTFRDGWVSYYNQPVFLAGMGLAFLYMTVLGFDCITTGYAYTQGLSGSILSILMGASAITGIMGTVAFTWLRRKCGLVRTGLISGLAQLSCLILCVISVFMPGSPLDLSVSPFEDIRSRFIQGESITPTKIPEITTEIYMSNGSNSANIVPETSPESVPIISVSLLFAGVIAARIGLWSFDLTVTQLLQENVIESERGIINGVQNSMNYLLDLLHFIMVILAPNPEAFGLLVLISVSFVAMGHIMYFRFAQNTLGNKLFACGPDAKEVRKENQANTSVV
Assay: cell-based or functional assay
Positions of bridges follow the written chain, without caps; N, C: chain ends. Non-standard residues stand in square brackets, D forms with d. Groups on a side chain read outwards from the residue. *: point of attachment. PEG12 = NCCOCCOCCOCCOCCOCCOCCOCCOCCOCCOCCOCCOCCC(=O)O; Palmitoyl = CCCCCCCCCCCCCCCC(=O)*; Isovaleryl = CC(C)CC(=O)*
readout label: FPN IC50

• DTHXPCIKFKXC (Isovaleric acid-DTH-[Dpa]-PCI-[(D)Lys]-F-[Lys(Peg11-Palm)]-[Orn]-C-NH2) [Compd ID 136] = 27 nM
• Isovaleryl-DTHFPCI[dK]FK([PEG12-Palmitoyl])K[dC]-NH2 (disulfide 6-12 (inferred)) [Compd ID 97] = 41 nM
• DTHXPCIKFKKC (Isovaleric_Acid-D-T-H-bhPhe-(D)Pro-C-I-(D)Lys-F-[Lys_Peg11_Palm]-(D)Lys-C-NH2) [Compd ID 168] = 54 nM
• DTHXPCIKXKKC (Isovaleric acid-DTH-[Dpa]-PCI-[(D)Lys]-[b-hPhe]-[Lys(Peg11-Palm)]-[(D)Lys]-C-NH2) [Compd ID 122] = 5 nM
• DTHFPCIKFKPRSKGCK (Isovaleric acid-DTHFPCIKF-Lys[PEG11-Palm]-PRSKGCK-NH2) [Ref. Compd 1] = 30 nM
• Isovaleryl-DTHFPCI[dK]FK([PEG12-Palmitoyl])HC[dH]-NH2 (disulfide 6-12 (inferred)) [Compd ID 84] = 16 nM
• DTHXPCIKFKXC (Isovaleric acid-DTH-[Dpa]-PCI-[(D)Lys]-F-[Lys(Peg11-Palm)]-[Dab]-C-NH2) [Compd ID 137] = 23 nM
